Assay: Bioavailability determination of KD025HCl in mice (plasma levels after IV or PO)
Assay type: in vivo
Conditions: male, mouse; IV 2.00 mg/kg, Swiss albino mice, plasma
Outcome Measure: AUC(0-inf) (ng·h/mL)
All answers are understood in ng·h/mL, so give the number only.

The compound identified as COc1ccc(-c2nnc(Nc3nc4c(OC)nccc4[nH]3)o2)cc1OC [KD025HCl] registered its AUC(0-inf) at 3050

* * *

Tested on: HIF-2α transcriptional activity
Experiment: Hypoxia-responsive element-driven luciferase (HRE-Luc) assay
Format: cell-based, human
Settings: Homo sapiens; 786-0 CCRCC cells stably expressing HRE-Luc, 24 hours treatment
Outcome Measure: IC50 (µM)
Write the number in µM without appending the unit.

Reported IC50 (HIF-2α transcriptional activity) for entry "COc1ccc(-c2nnc(Nc3nc4ncccc4o3)o2)cc1" is 6.1

Reading of IC50 for "Fc1ccc(-c2nnc(Nc3nc4cnc(Cl)nc4[nH]3)o2)cc1" with HIF-2α transcriptional activity: 37.6

# lookup: "COc1nccc2[nH]c(Nc3nnc(-c4ccc(OC(F)(F)F)cc4)o3)nc12" on HIF-2α transcriptional activity, IC50 = 16.5

Note to self: IC50 of "COc1nccc2[nH]c(Nc3nnc(-c4ccc(OC(C)C)cc4)o3)nc12" with HIF-2α transcriptional activity was 22.6

IC50 value, target or system HIF-2α transcriptional activity, for "Fc1ccc(-c2nnc(Nc3nc4ccnc(-c5ccc6c(c5)OCO6)c4[nH]3)o2)cc1" : 19.9

* * *

Assay: Bioavailability determination of KD025HCl in mice (plasma levels after IV or PO)
Format: in vivo
Conditions: male, mouse; IV 2.00 mg/kg, Swiss albino mice, plasma
Outcome Measure: clearance (mL/min/kg)
# value in mL/min/kg; strip the unit string

Entry COc1ccc(-c2nnc(Nc3nc4c(OC)nccc4[nH]3)o2)cc1OC [KD025HCl] ; clearance = 10.9

* * *

Assay: Bioavailability determination of KD025HCl in mice (plasma levels after IV or PO)
Format: in vivo
Conditions: male, Swiss albino, mouse, plasma, po, 10 mg/kg, PO 10.00 mg/kg, 6.00 h, read-out: Plasma concentration, Mean
Outcome Measure: concentration at 6 h
Please report the result as a number followed by the unit.

The compound listed as COc1ccc(-c2nnc(Nc3nc4c(OC)nccc4[nH]3)o2)cc1OC [KD025HCl] shows concentration at 6 h equal to 127 ng/mL

* * *

Experiment: Bioavailability determination of KD025HCl in mice (plasma levels after IV or PO)
Type: in vivo
Conditions: male, Swiss albino, mouse, plasma, iv, 2 mg/kg, IV 2.00 mg/kg, 0.50 h, read-out: Plasma concentration, Mean
Outcome Measure: concentration at 0.5 h (ng/mL)
Unit ng/mL implied. Number only.

Record COc1ccc(-c2nnc(Nc3nc4c(OC)nccc4[nH]3)o2)cc1OC [KD025HCl] , field concentration at 0.5 h: 1700

* * *

Test: Bioavailability determination of KD025HCl in mice (plasma levels after IV or PO)
Assay type: in vivo
Conditions: male, mouse; IV 2.00 mg/kg, Swiss albino mice, plasma
Outcome Measure: AUC(0-t) (ng·h/mL)
Give the value in ng·h/mL but do not write ng·h/mL after it.

The compound listed as COc1ccc(-c2nnc(Nc3nc4c(OC)nccc4[nH]3)o2)cc1OC [KD025HCl] has a reported AUC(0-t) of 3010

* * *

Assay: Bioavailability determination of KD025HCl in mice (plasma levels after IV or PO)
Assay type: in vivo
Settings: male, Swiss albino, mouse, plasma, iv, 2 mg/kg, IV 2.00 mg/kg, 1.00 h, read-out: Plasma concentration, Mean
Outcome Measure: concentration at 1 h (ng/mL)
Answer in ng/mL, number only, no unit symbol.

The recorded concentration at 1 h for entry COc1ccc(-c2nnc(Nc3nc4c(OC)nccc4[nH]3)o2)cc1OC [KD025HCl] equals 790

* * *

Experiment: Bioavailability determination of KD025HCl in mice (plasma levels after IV or PO)
Format: in vivo
Details: male, Swiss albino, mouse, plasma, po, 10 mg/kg, PO 10.00 mg/kg, 1.00 h, read-out: Plasma concentration, individual animals (M1-, M2-, M3-)
Outcome Measure: concentration at 1 h (µg/mL)
Reply numerically in µg/mL, unit not repeated.

// field: concentration at 1 h; key: COc1ccc(-c2nnc(Nc3nc4c(OC)nccc4[nH]3)o2)cc1OC [KD025HCl] ; value = 1.57

* * *

Test: Bioavailability determination of KD025HCl in mice (plasma levels after IV or PO)
Assay type: in vivo
Conditions: male, Swiss albino, mouse, plasma, po, 10 mg/kg, PO 10.00 mg/kg, 6.00 h, read-out: Plasma concentration, individual animals (M1-, M2-, M3-)
Protocol: To determine the bioavailability KD025HCl, serum concentrations of KD025HCl were determined after varying durations following oral or intravenous (IV) administration. Doses were validated by LC/MS/MS. […] Using this procedure, the plasma levels of KD025HCl after either IV or PO administration was determined, and bioavailability as well as other pharmacokinetic parameters were determined and shown in Table 6.
Outcome Measure: concentration at 6 h (ng/mL)
Numeric only. Scale: ng/mL

Record COc1ccc(-c2nnc(Nc3nc4c(OC)nccc4[nH]3)o2)cc1OC [KD025HCl] . Reported concentration at 6 h: 160

* * *

Assay: Bioavailability determination of KD025HCl in mice (plasma levels after IV or PO)
Assay type: in vivo
Details: male, Swiss albino, mouse, plasma, po, 10 mg/kg, PO 10.00 mg/kg, 0.25 h, read-out: Plasma concentration, Mean
Outcome Measure: concentration at 0.25 h (ng/mL)
Provide the reading as a plain figure in ng/mL.

Data point: COc1ccc(-c2nnc(Nc3nc4c(OC)nccc4[nH]3)o2)cc1OC [KD025HCl] ; concentration at 0.25 h = 1260

* * *

Experiment: Bioavailability determination of KD025HCl in mice (plasma levels after IV or PO)
Assay type: in vivo
Details: male, Swiss albino, mouse, plasma, iv, 2 mg/kg, IV 2.00 mg/kg, 0.50 h, read-out: Plasma concentration, individual animals (M1-, M2-, M3-)
Outcome Measure: concentration at 0.5 h (ng/mL)
Answer format: numeric, ng/mL implied, no suffix.

Lab note: COc1ccc(-c2nnc(Nc3nc4c(OC)nccc4[nH]3)o2)cc1OC [KD025HCl] gave concentration at 0.5 h of 1480

* * *

Tested on: 786-0 CCRCC cells
Assay: Resazurin cell viability assay, with or without deferoxamine
Format: cell-based, human
Conditions: 786-0 CCRCC cells, 24 hours, resazurin, with 100 μM deferoxamine (DFO); read-out: cell viability IC50 in the presence of DFO
Outcome Measure: IC50 (µM)
Give the number; µM is assumed, so skip it.

Just so you know, measured IC50 for "COc1ccc(-c2nnc(Nc3nc4c(OC)nccc4[nH]3)o2)cc1" came out at 83.6

* * *

Test: Bioavailability determination of KD025HCl in mice (plasma levels after IV or PO)
Type: in vivo
Conditions: male, Swiss albino, mouse, plasma, iv, 2 mg/kg, IV 2.00 mg/kg, plasma, read-out: Vss
Outcome Measure: Vd (L/kg)
Enter your answer as a number in L/kg; do not include the unit.

Vd recorded for this molecule, COc1ccc(-c2nnc(Nc3nc4c(OC)nccc4[nH]3)o2)cc1OC [KD025HCl] , is 0.72

* * *

Experiment: Bioavailability determination of KD025HCl in mice (plasma levels after IV or PO)
Assay type: in vivo
Conditions: male, Swiss albino, mouse, plasma, po, 10 mg/kg, PO 10.00 mg/kg, 0.50 h, read-out: Plasma concentration, Mean
Outcome Measure: concentration at 0.5 h (ng/mL)
Give the value in ng/mL but do not write ng/mL after it.

The reported value for COc1ccc(-c2nnc(Nc3nc4c(OC)nccc4[nH]3)o2)cc1OC [KD025HCl] in terms of concentration at 0.5 h is 1910

* * *

Experiment: Bioavailability determination of KD025HCl in mice (plasma levels after IV or PO)
Type: in vivo
Conditions: male, mouse; PO 10.00 mg/kg, Swiss albino mice, plasma
Outcome Measure: AUC(0-t)
Please make sure the unit comes right after the number.

The molecule listed as COc1ccc(-c2nnc(Nc3nc4c(OC)nccc4[nH]3)o2)cc1OC [KD025HCl] shows AUC(0-t) equal to 3750 ng·h/mL

* * *

Assay: Bioavailability determination of KD025HCl in mice (plasma levels after IV or PO)
Assay type: in vivo
Conditions: male, Swiss albino, mouse, plasma, po, 10 mg/kg, PO 10.00 mg/kg, 8.00 h, read-out: Plasma concentration, individual animals (M1-, M2-, M3-)
Outcome Measure: concentration at 8 h (ng/mL)
# number only, unit ng/mL dropped from output

Per the records, this compound ( COc1ccc(-c2nnc(Nc3nc4c(OC)nccc4[nH]3)o2)cc1OC [KD025HCl] ) has concentration at 8 h equal to 85.5

Data provenance: patent US11447482B1
